Sourced from ChEMBL document CHEMBL3885861

Property: APTT; scope: individual compounds
Species on record: Rattus norvegicus
Assay: Open TG-GATES - Regimen: Single
Type: toxicity, organism-based, Sprague-Dawley
Set-up: regimen Single, gender Male, age 6 weeks
Details: in vivo, po, 0 mg/kg, 9 h, tissue Blood, route gavage, dose level Control
Form entry: value (s) — number only.

Please review the entries below; each comes with its answer.
{"compound": "COC1=CC(=O)C[C@@H](C)[C@]12Oc1c(Cl)c(OC)cc(OC)c1C2=O", "output.unit": "s", "APTT": 18.2}
{"compound": "CN1C(=O)CN=C(c2ccccc2)c2cc(Cl)ccc21", "output.unit": "s", "APTT": 15.7}
{"compound": "COc1ccc2[nH]c([S+]([O-])Cc3ncc(C)c(OC)c3C)nc2c1 (stereo not given)", "output.unit": "s", "APTT": 20.9}
{"compound": "Cc1ccc(C)c(OCCCC(C)(C)C(=O)O)c1", "output.unit": "s", "APTT": 15.5}

Here's the next entry for you.
Consider the compound shown here: "NC(N)=Nc1nc(CSCCC(N)=NS(N)(=O)=O)cs1" What is its recorded APTT?
19.9

###

Species on record: Rattus norvegicus
Test: Open TG-GATES - Regimen: Single
Format: toxicity, organism-based, Sprague-Dawley
Design: regimen Single, gender Male, age 6 weeks
Settings: in vivo, po, 100 mg/kg, 3 h, tissue Plasma, route gavage, dose level High
endpoint: TC (mg/dL)
Enter your answer as a number in mg/dL; do not include the unit.

{"structure": "CC1=C(/C=C/C(C)=C/C=C/C(C)=C/CO)C(C)(C)CCC1", "TC (mg/dL)": 77}
{"structure": "CN(C)CCCN1c2ccccc2CCc2ccc(Cl)cc21", "TC (mg/dL)": 73.8}
{"structure": "CN(C)CCN(Cc1cccs1)c1ccccn1", "TC (mg/dL)": 69.8}

The record that follows has no TC shown yet.
Which TC value belongs to "CN(C)CCCN1c2ccccc2CCc2ccccc21" ?
69

###

In this section, each of the molecules is paired with its reported PL.
Species on record: Rattus norvegicus
Assay: Open TG-GATES - Regimen: Single
Type: toxicity, organism-based, Sprague-Dawley
Set-up: regimen Single, gender Male, age 6 weeks
Settings: in vivo, po, 0 mg/kg, 6 h, tissue Plasma, route gavage, dose level Control

Solved entries (count: 9):
{"molecule": "CCCNC(=O)NS(=O)(=O)c1ccc(Cl)cc1 [CHLORPROPAMIDE]", "PL": "153.4 mg/dL"}
{"molecule": "CN(C)CCCN1c2ccccc2CCc2ccccc21 [IMIPRAMINE]", "PL": "133.6 mg/dL"}
{"molecule": "O=C(CCCN1CCC(O)(c2ccc(Cl)cc2)CC1)c1ccc(F)cc1 [HALOPERIDOL]", "PL": "142.8 mg/dL"}
{"molecule": "CC1=C(/C=C/C(C)=C/C=C/C(C)=C/CO)C(C)(C)CCC1 [RETINOL]", "PL": "152 mg/dL"}
{"molecule": "COc1cc2c(c(OC)c1OC)-c1ccc(OC)c(=O)cc1[C@@H](NC(C)=O)CC2 [COLCHICINE]", "PL": "135.2 mg/dL"}
{"molecule": "CCOc1ccc(NC(=O)CC(C)O)cc1 (stereo not given) [BUCETIN]", "PL": "143.2 mg/dL"}
{"molecule": "COC1=CC(=O)C[C@@H](C)[C@]12Oc1c(Cl)c(OC)cc(OC)c1C2=O [GRISEOFULVIN]", "PL": "138.8 mg/dL"}
{"molecule": "CC(C)OC(=O)C(C)(C)Oc1ccc(C(=O)c2ccc(Cl)cc2)cc1 [FENOFIBRATE]", "PL": "142.6 mg/dL"}
{"molecule": "NNC(=O)c1ccncc1 [ISONIAZID]", "PL": "133.8 mg/dL"}

Report PL for CN1C(=O)CN=C(c2ccccc2)c2cc(Cl)ccc21 [DIAZEPAM] please.
140 mg/dL

###

Species: Rattus norvegicus
Assay: Open TG-GATES - Regimen: Single
Format: toxicity, organism-based, Sprague-Dawley
Parameters: regimen Single, gender Male, age 6 weeks
Details: in vivo, po, 30 mg/kg, 9 h, tissue Plasma, route gavage, dose level Middle
endpoint: gamma-GTP (IU/L)
# unit: IU/L | format: bare number

Sample answers from the record:
{"structure": "CN(C)CCN(Cc1cccs1)c1ccccn1", "observed": 1}
{"structure": "CN(C)CCCN1c2ccccc2CCc2ccccc21", "observed": 0.8}

Requested field: gamma-GTP. Item: "CC1=C(/C=C/C(C)=C/C=C/C(C)=C/CO)C(C)(C)CCC1"
1

Then what about the compound "CN(C)CCCN1c2ccccc2CCc2ccc(Cl)cc21" ?
1

###

Organism: Rattus norvegicus
Experiment: Open TG-GATES - Regimen: Daily Repeat
Format: toxicity, organism-based, Sprague-Dawley
Design: regimen Daily Repeat, gender Male, age 6 weeks
Details: in vivo, po, 0 mg/kg, […], tissue Blood, route gavage, dose level Control, time 7 day
endpoint: Plat

Sample records with Plat:
{"structure": "NNC(=O)c1ccncc1", "Plat": "127.4 x10_4/uL"}
{"structure": "CN(C)CCCN1c2ccccc2CCc2ccccc21", "Plat": "123.5 x10_4/uL"}
{"structure": "O=C(CCCN1CCC(O)(c2ccc(Cl)cc2)CC1)c1ccc(F)cc1", "Plat": "104.8 x10_4/uL"}
{"structure": "COC1=CC(=O)C[C@@H](C)[C@]12Oc1c(Cl)c(OC)cc(OC)c1C2=O", "Plat": "122.6 x10_4/uL"}

Now for a further compound.
For the compound "CN1C(=O)CN=C(c2ccccc2)c2cc(Cl)ccc21" , what Plat is on record?
106.5 x10_4/uL

###

Organism: Rattus norvegicus
Assay: Open TG-GATES - Regimen: Daily Repeat
Assay type: toxicity, organism-based, Sprague-Dawley
Design: regimen Daily Repeat, gender Male, age 6 weeks
Conditions: in vivo, po, 100 mg/kg, […], tissue Plasma, route gavage, dose level Low, time 28 day
IP less than 7 mg/dL is Criterion met; IP greater than or equal to 7 mg/dL is Criterion not met.

Look over these answered cases.
{"molecule": "COc1ccc2[nH]c([S+]([O-])Cc3ncc(C)c(OC)c3C)nc2c1 (stereo not given)", "category": "Criterion not met"}
{"molecule": "COC1=CC(=O)C[C@@H](C)[C@]12Oc1c(Cl)c(OC)cc(OC)c1C2=O", "category": "Criterion met"}

Consider the additional molecule presented here.
Here's an entry: CCOc1ccc(NC(=O)CC(C)O)cc1 (stereo not given) . Is its IP below 7 mg/dL?
Criterion met

###

Listing of recorded TERMINAL_BW by entry.
Organism: Rattus norvegicus
Assay: Open TG-GATES - Regimen: Single
Type: toxicity, organism-based, Sprague-Dawley
Parameters: regimen Single, gender Male, age 6 weeks
Settings: in vivo, po, 100 mg/kg, 6 h, route gavage, dose level High
// note: answer is a bare numeric in g

{"structure": "CN(C)CCN(Cc1cccs1)c1ccccn1", "observed": 183.8}

# get_value(readout='TERMINAL_BW', item= "CN(C)CCCN1c2ccccc2CCc2ccccc21" )
200.3

Another molecule: "CC1=C(/C=C/C(C)=C/C=C/C(C)=C/CO)C(C)(C)CCC1"
205.2

What do you have for "CN(C)CCCN1c2ccccc2CCc2ccc(Cl)cc21" ?
210.3

###

Species: Rattus norvegicus
Assay: Open TG-GATES - Regimen: Single
Format: toxicity, organism-based, Sprague-Dawley
Set-up: regimen Single, gender Male, age 6 weeks
Settings: in vivo, po, 0 mg/kg, 24 h, tissue Plasma, route gavage, dose level Control
This section presents molecules with their documented LDH values.
All answers are understood in IU/L, so give the number only.

Recorded LDH, per entry:
{"molecule": "CCOc1ccc(NC(=O)CC(C)O)cc1 (stereo unspecified)", "endpoint": "LDH", "observed": 74.6}
{"molecule": "C[C@@H]1C[C@H]2[C@@H]3CCC4=CC(=O)C=C[C@]4(C)[C@@]3(F)[C@@H](O)C[C@]2(C)[C@@]1(O)C(=O)CO", "endpoint": "LDH", "observed": 89.8}
{"molecule": "CCOC(=O)CCC(=O)O[C@H]1[C@H](O[C@@H]2[C@@H](C)[C@H](O[C@H]3C[C@@](C)(OC)[C@@H](O)[C@H](C)O3)[C@@H](C)C(=O)O[C@H](CC)[C@@](C)(O)[C@H](O)[C@@H](C)C(=O)[C@H](C)C[C@@]2(C)O)O[C@H](C)C[C@@H]1N(C)C [ERYTHROMYCIN ETHYLSUCCINATE]", "endpoint": "LDH", "observed": 191.4}
{"molecule": "CN(C)CCCN1c2ccccc2CCc2ccccc21", "endpoint": "LDH", "observed": 75.2}
{"molecule": "O=C(CCCN1CCC(O)(c2ccc(Cl)cc2)CC1)c1ccc(F)cc1", "endpoint": "LDH", "observed": 82.6}
{"molecule": "COc1cc2c(c(OC)c1OC)-c1ccc(OC)c(=O)cc1[C@@H](NC(C)=O)CC2", "endpoint": "LDH", "observed": 86.2}
{"molecule": "CC/C(=C(\\c1ccccc1)c1ccc(OCCN(C)C)cc1)c1ccccc1", "endpoint": "LDH", "observed": 69}
{"molecule": "NNC(=O)c1ccncc1", "endpoint": "LDH", "observed": 190.8}

Which measured LDH value corresponds to "CC1=C(/C=C/C(C)=C/C=C/C(C)=C/CO)C(C)(C)CCC1" ?
245.8

Entry to check: "COC1=CC(=O)C[C@@H](C)[C@]12Oc1c(Cl)c(OC)cc(OC)c1C2=O"
148.2

What do we get for "NC(N)=Nc1nc(CSCCC(N)=NS(N)(=O)=O)cs1" ?
203.2

Input COc1ccc2[nH]c([S+]([O-])Cc3ncc(C)c(OC)c3C)nc2c1 (stereo unspecified)
192

Let us now turn to "Cc1ccc(C)c(OCCCC(C)(C)C(=O)O)c1"
79.8

CCCNC(=O)NS(=O)(=O)c1ccc(Cl)cc1 [CHLORPROPAMIDE] , same question.
79.4

Repeat with "CN(C)CCCN1c2ccccc2CCc2ccc(Cl)cc21"
80.2

Similarly, "CN(C)CCN(Cc1cccs1)c1ccccn1" ?
206.4
